From: patent US20230086702A1

Biological target: DLK (Homo sapiens, UniProt Q12852)
Construct: 10 nM DLK, catalytic domain, Carna Biosiences; purchased Carna Biosciences ('Carna Biosiences' [sic])
Sequence (Q12852 125-366 limits assumed): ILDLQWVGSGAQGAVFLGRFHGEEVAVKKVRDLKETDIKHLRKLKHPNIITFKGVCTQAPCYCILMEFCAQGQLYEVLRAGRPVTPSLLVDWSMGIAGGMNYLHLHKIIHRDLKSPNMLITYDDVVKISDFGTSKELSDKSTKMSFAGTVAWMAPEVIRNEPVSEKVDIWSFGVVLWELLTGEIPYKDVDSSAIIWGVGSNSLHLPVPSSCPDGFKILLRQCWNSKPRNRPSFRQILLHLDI
Assay: DLK biochemical assay (TR-FRET, MKK7 phosphorylation)
Details: DLK catalytic domain, MKK7 substrate, 60 μM ATP
attribute measured: IC50 (nM)

{"columns": ["compound", "experimental system", "measured result"],
 "data": [
  ["CC[C@H](C)NC(=O)c1cc(-c2cnn(C(CC(F)(F)F)c3ccccc3)c2)cn2nc(N)nc12 (single isomer, unassigned) [Example I-38]", "DLK (Homo sapiens, UniProt Q12852)", 1.3]
]}

a. CC[C@H](C)NC(=O)c1cc(-c2cnn(C(c3ccc(C(F)(F)F)nc3)C(C)C)c2)cn2nc(N)nc12 (mixture of isomers) [Example I-73]
b. CC[C@H](C)NC(=O)c1cc(-c2cnn(C3CCOc4ccccc43)c2)cc2nc(N)nn12 (single isomer, unassigned) [Example I-18]
Pick the one with the larger IC50: a vs b Lab note: record the label of whichever item you select.
b
(b: 47 nM, a: 1.6 nM)
